Listing of recorded remaining activity at 10 µM by entry.
Target: EGFR (Homo sapiens (Human))
Sequence (P00533 25-1210): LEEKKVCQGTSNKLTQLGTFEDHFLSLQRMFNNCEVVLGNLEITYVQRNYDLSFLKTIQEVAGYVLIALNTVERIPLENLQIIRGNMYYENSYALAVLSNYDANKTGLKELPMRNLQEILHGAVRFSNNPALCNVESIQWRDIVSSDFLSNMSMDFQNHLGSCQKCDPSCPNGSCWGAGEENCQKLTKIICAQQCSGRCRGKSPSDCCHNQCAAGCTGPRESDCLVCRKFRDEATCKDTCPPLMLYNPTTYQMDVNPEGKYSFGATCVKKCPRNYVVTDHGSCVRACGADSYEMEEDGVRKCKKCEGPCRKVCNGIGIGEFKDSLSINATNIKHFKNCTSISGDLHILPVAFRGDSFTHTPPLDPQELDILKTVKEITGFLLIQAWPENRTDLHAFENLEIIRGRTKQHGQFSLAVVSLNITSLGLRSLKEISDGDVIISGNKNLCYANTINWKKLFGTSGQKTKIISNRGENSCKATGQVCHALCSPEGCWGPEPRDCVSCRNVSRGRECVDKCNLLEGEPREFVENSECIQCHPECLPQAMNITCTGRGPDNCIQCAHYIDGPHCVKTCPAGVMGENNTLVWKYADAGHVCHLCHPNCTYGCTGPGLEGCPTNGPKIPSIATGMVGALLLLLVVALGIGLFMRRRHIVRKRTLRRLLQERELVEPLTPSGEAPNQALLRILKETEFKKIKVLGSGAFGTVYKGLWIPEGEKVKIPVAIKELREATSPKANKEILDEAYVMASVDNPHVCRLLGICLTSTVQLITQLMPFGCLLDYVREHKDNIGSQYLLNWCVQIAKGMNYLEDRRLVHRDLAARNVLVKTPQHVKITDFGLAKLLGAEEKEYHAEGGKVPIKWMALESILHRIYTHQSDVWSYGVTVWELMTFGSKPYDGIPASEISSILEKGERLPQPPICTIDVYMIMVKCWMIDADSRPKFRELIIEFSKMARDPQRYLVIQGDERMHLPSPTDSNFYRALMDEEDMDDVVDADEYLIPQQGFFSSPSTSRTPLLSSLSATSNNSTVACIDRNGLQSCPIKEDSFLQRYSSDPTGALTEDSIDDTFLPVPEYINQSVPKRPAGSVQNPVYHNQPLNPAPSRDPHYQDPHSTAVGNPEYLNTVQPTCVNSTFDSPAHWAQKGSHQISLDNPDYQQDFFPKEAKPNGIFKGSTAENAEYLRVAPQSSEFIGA
Assay: HTRF KinEASE-TK kinase assay, EGFR
Type: biochemical
Settings: 10 μM compound, 3 h preincubation; read-out: % EGFR Remaining activity vs DMSO (10 μM, 3 h)

Worked cases, remaining activity at 10 µM given:
- molecule: "Nc1ncnc2c1c(-c1ccc(Oc3ccccc3)cc1)nn2[C@@H]1CCN(S(=O)(=O)c2c(F)c(F)c(F)c(F)c2OCF)C1"
  remaining activity at 10 µM: "> 90%"
- molecule: "Nc1ncnc2c1c(-c1ccc(Oc3ccccc3)cc1)nn2[C@@H]1CCCN(C(=O)c2c(F)c(F)c(F)c(F)c2S(N)(=O)=O)C1"
  remaining activity at 10 µM: "> 90%"
- molecule: "CS(=O)(=O)c1c(F)c(F)c(F)c(F)c1C(=O)NCCn1nc(-c2ccc(Oc3ccccc3)cc2)c2c(N)ncnc21"
  remaining activity at 10 µM: "< 50%"
- molecule: "C[S@+]([O-])c1c(F)c(F)c(F)c(F)c1C(=O)N1CC(n2nc(-c3ccc(Oc4ccccc4)cc3)c3c(N)ncnc32)C1 (racemic)"
  remaining activity at 10 µM: "< 50%"
- molecule: "CS(=O)(=O)c1c(F)c(F)c(F)c(F)c1C(=O)n1ccc2c(N)ncnc21"
  remaining activity at 10 µM: "> 90%"

Q) // remaining activity at 10 µM lookup, key: C[S+]([O-])c1c(F)c(F)c(F)c(F)c1C(=O)Nc1cc2c(Nc3ccc(F)c(Cl)c3)ncnc2cc1OC1CCOC1 (centres unmarked)
A) < 50%

Q) Data request, read-out remaining activity at 10 µM, for O=S(=O)(Nc1cc2c(Nc3ccc(F)c(Cl)c3)ncnc2cc1O[C@H]1CCOC1)c1c(F)c(F)c(F)c(F)c1C(F)(F)F
A) < 50%

Q) I would be grateful if you could share the reported remaining activity at 10 µM for CS(=O)(=O)c1c(F)c(F)c(F)c(F)c1C(=O)NCCNc1ncnc2[nH]ccc12 .
A) < 50%

Q) Tell me the measured remaining activity at 10 µM of CN(CCn1nc(-c2ccc(Oc3ccccc3)cc2)c2c(N)ncnc21)C(=O)c1c(F)c(F)c(F)c(F)c1S(=O)(=O)N(C)C , please.
A) 50 to 90%

Q) Give the measured remaining activity at 10 µM of CN(CCn1nc(-c2ccc(Oc3ccccc3)cc2)c2c(N)ncnc21)C(=O)c1c(F)c(F)c(F)c(F)c1S(N)(=O)=O .
A) < 50%

Q) What measured remaining activity at 10 µM goes with CN(C)S(=O)(=O)c1c(F)c(F)c(F)c(F)c1C(=O)NCCCn1nc(-c2ccc(Oc3ccccc3)cc2)c2c(N)ncnc21 ?
A) < 50%

* * *

System: β-Tubulin
Assay: K562 cell lysis and immunoassay, β-tubulin degradation
Assay type: cell-based
Parameters: key: Y: β-tubulin bound in cells and tubulin degradation occurred
Details: K562 cells, compound concentration 10
measurement-kind: Beta-tubulin K562, compound concentration, 24 hrs

- line-notation: "COc1ccc(CS(=O)(=O)c2c(F)c(F)c(F)c(F)c2OC(F)F)cc1F"
  result: "Y"
- line-notation: "COc1ccc(NS(=O)(=O)c2c(F)c(F)c(F)c(F)c2C(F)(F)F)cc1F"
  result: "Y"
- line-notation: "COc1ccc(NC(=O)c2c(F)c(F)c(F)c(F)c2S(=O)(=O)N(C)C)cc1F"
  result: "Y"
- line-notation: "COc1ccc(CS(=O)(=O)c2c(F)c(F)c(F)c(F)c2OCc2ccccc2)cc1F"
  result: "Y"
